Reference source for all entries: ChEMBL document CHEMBL1671627

System: Finegoldia magna
assay: Antibacterial activity against beta-lactamase producing Finegoldia magna by CLSI agar dilution method
Assay type: functional
Measured MIC90 values are reported for all entries that follow.

| compound | units.symbol | MIC90 |
| --- | --- | --- |
| CC1(C)S[C@@H]2[C@H](NC(=O)Cc3ccccc3)C(=O)N2[C@H]1C(=O)O | mg/L | 1 |
| C[C@@H](O)[C@H]1C(=O)N2C(C(=O)O)=C(SCCNC=N)C[C@H]12 [IMIPENEM ANHYDROUS] | mg/L | 0.5 |
| C[C@@H](O)[C@H]1C(=O)N2C(C(=O)O)=C(S[C@@H]3CN[C@H](CNS(N)(=O)=O)C3)[C@H](C)[C@H]12 | mg/L | 0.5 |
| Cc1ncc([N+](=O)[O-])n1CCO | mg/L | 16 |

* * *

Activity for assorted compounds
Tested on: Fusobacterium necrophorum
assay: Antibacterial activity against Fusobacterium necrophorum assessed as susceptible isolates by CLSI agar dilution method
Assay type: functional

| compound | Activity |
| --- | --- |
| O=C(N[C@H](CO)[C@H](O)c1ccc([N+](=O)[O-])cc1)C(Cl)Cl | 96% |
| CC1(C)S[C@@H]2[C@H](NC(=O)Cc3ccccc3)C(=O)N2[C@H]1C(=O)O | 85% |
| C[C@@H](O)[C@H]1C(=O)N2C(C(=O)O)=C(SCCNC=N)C[C@H]12 [IMIPENEM ANHYDROUS] | 96% |
| CO[C@@]1(NC(=O)CSCC#N)C(=O)N2C(C(=O)O)=C(CSc3nnnn3C)CS[C@@H]21 | 100% |
| CCN1CCN(C(=O)N[C@@H](C(=O)N[C@@H]2C(=O)N3[C@@H]2SC(C)(C)[C@@H]3C(=O)O)c2ccccc2)C(=O)C1=O | 90% |
| C[C@@H](O)[C@H]1C(=O)N2C(C(=O)O)=C(S[C@@H]3CN[C@H](C(=O)Nc4cccc(C(=O)O)c4)C3)[C@H](C)[C@H]12 | 100% |
| Cc1ncc([N+](=O)[O-])n1CCO | 100% |

* * *

System: Prevotella melaninogenica
assay: Antibacterial activity against Prevotella melaninogenica by CLSI agar dilution method
Format: functional
Strictly below 1 µg/mL in MIC50: fulfilled. Otherwise: not fulfilled.

| compound | qualitative.label |
| --- | --- |
| C[C@@H](O)[C@H]1C(=O)N2C(C(=O)O)=C(S[C@@H]3CN[C@H](CNS(N)(=O)=O)C3)[C@H](C)[C@H]12 | fulfilled |
| CO[C@@]1(NC(=O)CSCC#N)C(=O)N2C(C(=O)O)=C(CSc3nnnn3C)CS[C@@H]21 | not fulfilled |
| CC1(C)S[C@@H]2[C@H](NC(=O)Cc3ccccc3)C(=O)N2[C@H]1C(=O)O | not fulfilled |
| C[C@@H](O)[C@H]1C(=O)N2C(C(=O)O)=C(SCCNC=N)C[C@H]12 [IMIPENEM ANHYDROUS] | fulfilled |
| C[C@@H](O)[C@H]1C(=O)N2C(C(=O)O)=C(S[C@@H]3CN[C@H](C(=O)N(C)C)C3)[C@H](C)[C@H]12 | fulfilled |
| C[C@@H](O)[C@H]1C(=O)N2C(C(=O)O)=C(S[C@@H]3CN[C@H](C(=O)Nc4cccc(C(=O)O)c4)C3)[C@H](C)[C@H]12 | fulfilled |
| CCN1CCN(C(=O)N[C@@H](C(=O)N[C@@H]2C(=O)N3[C@@H]2SC(C)(C)[C@@H]3C(=O)O)c2ccccc2)C(=O)C1=O | not fulfilled |
| O=C(N[C@H](CO)[C@H](O)c1ccc([N+](=O)[O-])cc1)C(Cl)Cl | not fulfilled |
| CCC[C@@H]1C[C@@H](C(=O)N[C@@H]([C@H]2O[C@H](SC)[C@H](O)[C@@H](O)[C@H]2O)[C@H](C)Cl)N(C)C1 | fulfilled |
